- TESTED_TARGET: Sut1 (UniProt P53032)
- Sequence: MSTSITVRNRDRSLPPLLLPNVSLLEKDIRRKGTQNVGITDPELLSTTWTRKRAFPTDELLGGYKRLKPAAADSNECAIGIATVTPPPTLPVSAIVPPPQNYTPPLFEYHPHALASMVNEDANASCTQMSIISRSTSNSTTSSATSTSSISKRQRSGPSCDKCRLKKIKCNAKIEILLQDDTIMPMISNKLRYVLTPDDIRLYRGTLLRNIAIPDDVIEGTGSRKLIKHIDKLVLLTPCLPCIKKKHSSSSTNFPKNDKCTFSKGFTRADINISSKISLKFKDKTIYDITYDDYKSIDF
- PROCEDURE_SUMMARY: PBM E-score (8-mer binding enrichment) (E-score (-0.5 to 0.5)); higher = stronger / more preferred TF binding
- EXPERIMENTAL_CONTEXT: protein concentration: 200 nM; construct: GST-full length
Whole data set: some 33,000 sequences, median “E-score (-0.5 to 0.5)” near -0.017, cut for the highest 2% near 0.3. This excerpt belongs to a sample that is enriched for the highest values.
PBM E-score of 0.1 or higher: 1 (yes). Under 0.1: 0 (no).

> print(dat)
    sequence.string          tested.target  assigned.label
 1         CAATAAAA  Sut1 (UniProt P53032)         1 (yes)
 2         GTAGGCAC  Sut1 (UniProt P53032)          0 (no)
 3         GGACCGGA  Sut1 (UniProt P53032)         1 (yes)
 4         ATTCCAAA  Sut1 (UniProt P53032)          0 (no)
 5         AACAAATA  Sut1 (UniProt P53032)         1 (yes)
 6         GCCGGCGC  Sut1 (UniProt P53032)          0 (no)
 7         AAAAGTCC  Sut1 (UniProt P53032)         1 (yes)
 8         GATCGGGC  Sut1 (UniProt P53032)          0 (no)
 9         CTAGATGA  Sut1 (UniProt P53032)          0 (no)
10         GCCCAGCC  Sut1 (UniProt P53032)          0 (no)
11         GCAAGAGA  Sut1 (UniProt P53032)          0 (no)
12         ACGGTCCT  Sut1 (UniProt P53032)          0 (no)
13         CATCGGCG  Sut1 (UniProt P53032)          0 (no)
14         AGCAAATG  Sut1 (UniProt P53032)          0 (no)
15         TAATAAAA  Sut1 (UniProt P53032)         1 (yes)
16         CAAGATTA  Sut1 (UniProt P53032)         1 (yes)
17         CATCGGTC  Sut1 (UniProt P53032)          0 (no)
18         CAATATAA  Sut1 (UniProt P53032)         1 (yes)
19         AAGGGATG  Sut1 (UniProt P53032)          0 (no)
20         ACTAAAAA  Sut1 (UniProt P53032)         1 (yes)
21         TACAACAA  Sut1 (UniProt P53032)         1 (yes)
22         CAGAAATC  Sut1 (UniProt P53032)          0 (no)
23         GTTATAAC  Sut1 (UniProt P53032)          0 (no)
24         GCGCTAAC  Sut1 (UniProt P53032)          0 (no)
25         GACTGGGC  Sut1 (UniProt P53032)          0 (no)
26         CCCTTCAA  Sut1 (UniProt P53032)          0 (no)
27         CAGAAGGG  Sut1 (UniProt P53032)          0 (no)
28         CTTATAAA  Sut1 (UniProt P53032)         1 (yes)
29         ATTCATGA  Sut1 (UniProt P53032)          0 (no)
30         ATGGCCGG  Sut1 (UniProt P53032)          0 (no)
31         GAACCGGC  Sut1 (UniProt P53032)          0 (no)
32         AGTATATC  Sut1 (UniProt P53032)         1 (yes)
33         CTGGAAAC  Sut1 (UniProt P53032)          0 (no)
34         GATGGTGC  Sut1 (UniProt P53032)          0 (no)
35         GAAAGTCC  Sut1 (UniProt P53032)         1 (yes)
36         GAACCGGA  Sut1 (UniProt P53032)         1 (yes)
37         TAACCGTA  Sut1 (UniProt P53032)          0 (no)
38         CATCGGAA  Sut1 (UniProt P53032)         1 (yes)
39         CCCAAAGC  Sut1 (UniProt P53032)          0 (no)
40         CGAAGTCA  Sut1 (UniProt P53032)          0 (no)
41         AGGGGTAT  Sut1 (UniProt P53032)          0 (no)
42         CTAAGTCC  Sut1 (UniProt P53032)         1 (yes)
43         AACACCGC  Sut1 (UniProt P53032)          0 (no)
44         GCCGTCCA  Sut1 (UniProt P53032)          0 (no)
45         GAATATAA  Sut1 (UniProt P53032)         1 (yes)
46         AAAAGTCA  Sut1 (UniProt P53032)         1 (yes)
47         CGAGGAAG  Sut1 (UniProt P53032)          0 (no)
48         AAACCGGC  Sut1 (UniProt P53032)          0 (no)
49         CAATGGGG  Sut1 (UniProt P53032)          0 (no)
50         CACACCGG  Sut1 (UniProt P53032)          0 (no)
51         CGGGGCTC  Sut1 (UniProt P53032)          0 (no)
52         TCCGTCCA  Sut1 (UniProt P53032)         1 (yes)
53         AATCAAGA  Sut1 (UniProt P53032)          0 (no)
54         ACAGTCTC  Sut1 (UniProt P53032)          0 (no)
55         ATTGCAAT  Sut1 (UniProt P53032)          0 (no)
56         CCCGGGCA  Sut1 (UniProt P53032)          0 (no)
57         GTTATAAA  Sut1 (UniProt P53032)         1 (yes)
58         AGCAGTTC  Sut1 (UniProt P53032)          0 (no)
59         CGAAGTCC  Sut1 (UniProt P53032)         1 (yes)
60         GTTCGGTA  Sut1 (UniProt P53032)         1 (yes)
61         GCCAAGCC  Sut1 (UniProt P53032)          0 (no)
62         GCAGGTAC  Sut1 (UniProt P53032)          0 (no)
63         GGATAAAA  Sut1 (UniProt P53032)         1 (yes)
64         ACTATAAA  Sut1 (UniProt P53032)         1 (yes)
65         TATTTCAA  Sut1 (UniProt P53032)         1 (yes)
66         ATAAGTCC  Sut1 (UniProt P53032)         1 (yes)
67         AATCGGTG  Sut1 (UniProt P53032)          0 (no)
68         GAACCGTA  Sut1 (UniProt P53032)          0 (no)
69         CCCCATAA  Sut1 (UniProt P53032)          0 (no)
70         GATAAATC  Sut1 (UniProt P53032)         1 (yes)
71         AATCGGAG  Sut1 (UniProt P53032)         1 (yes)
72         AGCGTCCC  Sut1 (UniProt P53032)          0 (no)
73         CAAAGTCC  Sut1 (UniProt P53032)         1 (yes)
74         ACTAAAAG  Sut1 (UniProt P53032)         1 (yes)
75         CAATTCAA  Sut1 (UniProt P53032)          0 (no)
76         CGGATCAA  Sut1 (UniProt P53032)         1 (yes)
77         AACACCGG  Sut1 (UniProt P53032)         1 (yes)
78         GGGCTACC  Sut1 (UniProt P53032)          0 (no)
79         GACTATGC  Sut1 (UniProt P53032)          0 (no)
80         AGTATATG  Sut1 (UniProt P53032)          0 (no)
81         TAACCGGA  Sut1 (UniProt P53032)         1 (yes)
82         AAGTTCTA  Sut1 (UniProt P53032)          0 (no)
83         GATCGGAC  Sut1 (UniProt P53032)         1 (yes)
84         AGCAAATC  Sut1 (UniProt P53032)         1 (yes)
85         AAACCGGT  Sut1 (UniProt P53032)          0 (no)
86         AAACTAAC  Sut1 (UniProt P53032)         1 (yes)
87         AAAGATTA  Sut1 (UniProt P53032)         1 (yes)
88         TAATAATA  Sut1 (UniProt P53032)         1 (yes)
89         CCCGTCCA  Sut1 (UniProt P53032)          0 (no)
90         AATCGGAT  Sut1 (UniProt P53032)         1 (yes)
91         AGTATATA  Sut1 (UniProt P53032)         1 (yes)
